Target: T1, recombinant RSV-F protein (RSV A2 strain fusion (F) protein with added His tag) (human respiratory syncytial virus, A2 …, UniProt P03420 26-524)
T1 construct: also called RSV-F recombinant protein
T1 sequence (P03420 26-109, chain 1 of 2): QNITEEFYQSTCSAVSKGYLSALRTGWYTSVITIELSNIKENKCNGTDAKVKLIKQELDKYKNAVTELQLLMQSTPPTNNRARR
T1 sequence (P03420 137-524, chain 2 of 2): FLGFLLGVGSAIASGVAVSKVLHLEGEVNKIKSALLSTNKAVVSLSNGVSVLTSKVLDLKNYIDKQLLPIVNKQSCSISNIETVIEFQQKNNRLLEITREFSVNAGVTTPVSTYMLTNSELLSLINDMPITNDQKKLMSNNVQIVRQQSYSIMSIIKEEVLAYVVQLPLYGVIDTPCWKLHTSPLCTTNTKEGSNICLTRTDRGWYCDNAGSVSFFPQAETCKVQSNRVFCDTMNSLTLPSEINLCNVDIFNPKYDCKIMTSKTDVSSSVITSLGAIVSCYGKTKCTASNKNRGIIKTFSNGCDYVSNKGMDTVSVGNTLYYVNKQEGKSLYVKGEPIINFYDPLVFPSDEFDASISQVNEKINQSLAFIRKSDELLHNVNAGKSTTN
Experiment: SPR (Biacore), antibody captured, RSV-F as analyte
Would you kindly list kon for each of these binders?
One number for each entry, in M⁻¹ s⁻¹.

Below: 2 binders and their reported kon.
| Binder | kon [M⁻¹ s⁻¹] |
| --- | --- |
| R3-16A10QH (antibody, human IgG1, kappa, V domains shown, also called chimeric antibody of R3-16A10) VH: EVKLEESGPELVKPGASVKISCKTSGYAFSDSWMNWVKQRPGQGLEWIGRIYPGDGDTQYNGKVKGKATLTADKSSSTAYMQVSSLTSVDSAVYFCAREGGMITSSGYYHALDYWGQGTSVTVSS VL: DIVMTQSPASLAVSLGQRTTISCRASESVDSYGNSFLNWYQQKPGQPPKVLIYLASNLESGVPARFSGSGSRTDFTLIIDPVEADDAATYYCQQNNEDPTFGGGTKLEIKR | 537000 |
| R10-6A11QH (antibody, human IgG1, kappa, V domains shown, also called chimeric antibody of R10-6A11) VH: QVKLEESGPGILQPSQTLSLTCSFSGFSLSTSGMGVSWIRQPSGKGLEWLAHIYWDDDKNYNPSLKSRLTISKDTSRNQVFLKITSVDTADTATYYCARKIYYDYDYALDYWGQGTSVTVSS VL: DIVMTQAAFSNPVTLGTSASISCRSSKSLLHSNGITYLCWFLQKPGQSPQLLIYQMSNLASGVPDRFSGSGSGTDFTLRISRVEAEDVGVYYCAQNLELWTFGGGTKLEIKR | 1.03e+06 |

kon reported for this binder R1-11C3QH (antibody, human IgG1, kappa, V domains shown, also called chimeric antibody of R1-11C3) VH: EVQLEESGAELVRSGASVKLSCTASGFNIKDYYMHWVKQRPEQGLEWIGWIDPENGDTEYAPKFQGKATLTADTSSNTAYLQLSTLTSEDNAVYYCNAAYYGDYVEDMDYWGQGTSVTVSS VL: DIVMTQTPLSLSVSLGDQASISCRSSQSIVHSDGNTFLEWYLQKPGQSPKLLIYKVSNRFSGVPDRFSGSGSGTDFTLKISRVEAEDLGVYYCFQASHLPRTFGGGTKLEIKR : 549000
